Target: T1, apelin receptor (AGTRL1) on CHO-K1 cells (UniProt P35414 1-380, limits assumed)
T1 sequence (looked up): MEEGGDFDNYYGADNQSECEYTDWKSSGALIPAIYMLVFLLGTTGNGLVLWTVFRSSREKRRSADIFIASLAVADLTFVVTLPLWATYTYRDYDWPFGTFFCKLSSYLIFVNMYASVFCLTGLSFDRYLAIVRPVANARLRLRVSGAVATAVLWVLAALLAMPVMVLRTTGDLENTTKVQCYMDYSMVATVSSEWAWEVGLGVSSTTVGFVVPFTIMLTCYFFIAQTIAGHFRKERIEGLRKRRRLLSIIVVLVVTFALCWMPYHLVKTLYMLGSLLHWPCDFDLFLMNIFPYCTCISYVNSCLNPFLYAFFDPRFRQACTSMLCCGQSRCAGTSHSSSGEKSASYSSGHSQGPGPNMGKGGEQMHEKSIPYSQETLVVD
Experiment: cell-based or functional assay
In this section we review reported beta-Arrestin EC50 (nM) Exp. 1 values for a set of binders.
Field format: number, assumed nM, no unit text.

ELA-C (Fc fusion) DKTHTSPPSPAPEAAGGPSVFLFPPKPKDTLMISRTPEVTCVVVDVSHEDPEVKFNWYVDGVEVHNAKTKPREEQYNSTYRVVSVLTVLHQDWLNGKEYKCKVSNKALPAPIEKTISKAKGQPREPQVYTLPPSREEMTKNQVNLTCLVKGFYPSDIAVEWESNGQPENNYKTTPPVLDSDGSFFLNSTLTVDKSRWQQGNVFSCSVMHEALHNHYTQKSLSLSPGKGGGGSGGGGSGGGGSKLRKHNCLQRRCMILHSRVPFP: 535
ELA-A (Fc fusion) DKTHTSPPSPAPEAAGGPSVFLFPPKPKDTLMISRTPEVTCVVVDVSHEDPEVKFNWYVDGVEVHNAKTKPREEQYNSTYRVVSVLTVLHQDWLNGKEYKCKVSNKALPAPIEKTISKAKGQPREPQVYTLPPSREEMTKNQVNLTCLVKGFYPSDIAVEWESNGQPENNYKTTPPVLDSDGSFFLNSTLTVDKSRWQQGNVFSCSVMHEALHNHYTQKSLSLSPGKGGGGSGGGGSGGGGSKLRKHNCLQRRCMPLHSRVPFP: 90.1
ELA-F (Fc fusion) DKTHTSPPSPAPEAAGGPSVFLFPPKPKDTLMISRTPEVTCVVVDVSHEDPEVKFNWYVDGVEVHNAKTKPREEQYNSTYRVVSVLTVLHQDWLNGKEYKCKVSNKALPAPIEKTISKAKGQPREPQVYTLPPSREEMTKNQVNLTCLVKGFYPSDIAVEWESNGQPENNYKTTPPVLDSDGSFFLNSTLTVDKSRWQQGNVFSCSVMHEALHNHYTQKSLSLSPGKGGGGSGGGGSGGGGSKLRKHNCLKRRCMPLHSRVPFP: 9.59
ELA-H (Fc fusion) DKTHTSPPSPAPEAAGGPSVFLFPPKPKDTLMISRTPEVTCVVVDVSHEDPEVKFNWYVDGVEVHNAKTKPREEQYNSTYRVVSVLTVLHQDWLNGKEYKCKVSNKALPAPIEKTISKAKGQPREPQVYTLPPSREEMTKNQVNLTCLVKGFYPSDIAVEWESNGQPENNYKTTPPVLDSDGSFFLNSTLTVDKSRWQQGNVFSCSVMHEALHNHYTQKSLSLSPGKGGGGSGGGGSGGGGSKLRKHNCLQRRCMPYHSRVPFP: 21.9
ELA-B (Fc fusion) DKTHTSPPSPAPEAAGGPSVFLFPPKPKDTLMISRTPEVTCVVVDVSHEDPEVKFNWYVDGVEVHNAKTKPREEQYNSTYRVVSVLTVLHQDWLNGKEYKCKVSNKALPAPIEKTISKAKGQPREPQVYTLPPSREEMTKNQVNLTCLVKGFYPSDIAVEWESNGQPENNYKTTPPVLDSDGSFFLNSTLTVDKSRWQQGNVFSCSVMHEALHNHYTQKSLSLSPGKGGGGSGGGGSGGGGSKLNKHNCLQRRCMPLHSRVPFP: 1120

Read the next record carefully.
In plain terms, ELA-I (Fc fusion) DKTHTSPPSPAPEAAGGPSVFLFPPKPKDTLMISRTPEVTCVVVDVSHEDPEVKFNWYVDGVEVHNAKTKPREEQYNSTYRVVSVLTVLHQDWLNGKEYKCKVSNKALPAPIEKTISKAKGQPREPQVYTLPPSREEMTKNQVNLTCLVKGFYPSDIAVEWESNGQPENNYKTTPPVLDSDGSFFLNSTLTVDKSRWQQGNVFSCSVMHEALHNHYTQKSLSLSPGKGGGGSGGGGSGGGGSKLRKHNSLQRRYMPLHSRVPFP has a documented beta-Arrestin EC50 (nM) Exp. 1 of 17.3
